Target: TxtE (Streptomyces scabiei, UniProt C9ZDC6, H176W)
Sequence (C9ZDC6 1-406 H176W): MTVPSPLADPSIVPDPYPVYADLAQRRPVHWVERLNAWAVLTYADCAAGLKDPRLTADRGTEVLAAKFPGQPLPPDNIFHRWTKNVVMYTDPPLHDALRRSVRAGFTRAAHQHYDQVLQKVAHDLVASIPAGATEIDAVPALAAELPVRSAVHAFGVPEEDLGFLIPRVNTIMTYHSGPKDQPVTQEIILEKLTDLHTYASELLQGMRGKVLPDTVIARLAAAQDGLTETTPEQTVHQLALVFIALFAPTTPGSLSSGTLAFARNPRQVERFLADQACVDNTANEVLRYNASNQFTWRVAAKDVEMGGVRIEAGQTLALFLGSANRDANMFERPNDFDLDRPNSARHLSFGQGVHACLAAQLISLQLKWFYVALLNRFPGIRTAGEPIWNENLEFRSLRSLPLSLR
Assay: differential UV-vis titration
Type: binding
property: Kd (nM)
Response body: numeric value in nM, unit text excluded.

Summary for this compound, `N[C@@H](Cc1c[nH]c2ccccc12)C(=O)O` : Kd is 1300

---

molecular target: TxtE (Streptomyces scabiei, UniProt C9ZDC6, H176Y); experiment: differential UV-vis titration
property: Kd

Summary for this molecule, `N[C@@H](Cc1c[nH]c2ccccc12)C(=O)O` : Kd is 4.9 µM

---

target: TxtE (Streptomyces scabiei, UniProt C9ZDC6, H176F); test: differential UV-vis titration
property: Kd (nM)
Response body: numeric value in nM, unit text excluded.

Query N[C@@H](Cc1c[nH]c2ccccc12)C(=O)O [L-tryptophan] on TxtE (Streptomyces scabiei, UniProt C9ZDC6, H176F); Kd returned: 2600

---

biological target: Virginiae_TxtE; test: differential UV-vis titration; type: binding, Streptomyces virginiae; conditions: read-out: Kd (μM)^b; 25 mM Tris pH 8
property: Kd (µM)
Response body: numeric value in µM, unit text excluded.

Summary for this compound, `N[C@@H](Cc1c[nH]c2ccccc12)C(=O)O` : Kd is 140

Just for reference, paper PMC4843824 is where these values come from.
